System: SR leukemia
Assay: NCI tumour cell line growth inhibition, 384-well format; in the data active = GI50 below about 0.43 µM; inactive = the rest
Thanks in advance; please answer with one of these: active, inactive

Solved cases (3 shown):
CC(F)(F)c1cc(F)ccc1-c1sc2cc(O)ccc2c1Oc1ccc(/C=C/C(=O)O)cc1 | inactive
CC(C)c1cc(CNc2nc(Nc3cc(C4CC4)[nH]n3)cc(N3CCN(C)CC3)n2)on1 | active
C[C@@]1(c2ncncc2F)NC(=O)c2cc(-c3cn[nH]c3)ccc21 | inactive

Here's the next entry for you.
(Q) Tell me the assay call for O=C(Nc1cccc2cccnc12)c1ccc(N2C(=O)[C@@H]3[C@H](C2=O)[C@@H]2C=C[C@H]3C2)cc1 please.
(A) inactive

====

I'd be grateful if you could share measured TGI for these entries.
Tested on: M14 melanoma
Test: NCI tumour cell line growth inhibition, 384-well format
One number for each entry, in µM.

Would you please look over these solved cases?
CC(F)(F)c1cc(F)ccc1-c1sc2cc(O)ccc2c1Oc1ccc(/C=C/C(=O)O)cc1 | 25.8
CS(=O)c1ccc(-c2nc(-c3ccc(F)cc3)c(-c3ccncc3)[nH]2)cc1 (centres undefined) | 29.4

In the following, a different compound is considered.
(Q) Please give measured TGI of the following entry: C[C@@]1(c2ncncc2F)NC(=O)c2cc(-c3cn[nH]c3)ccc21
(A) 22

====

Test system: OVCAR-8 ovarian
Experiment: NCI tumour cell line growth inhibition, 384-well format
metric-name: GI50

Would you please look over these solved cases?
O=C(Nc1cccc2cccnc12)c1ccc(N2C(=O)[C@@H]3[C@H](C2=O)[C@@H]2C=C[C@H]3C2)cc1 | 27.8 µM
CC(F)(F)c1cc(F)ccc1-c1sc2cc(O)ccc2c1Oc1ccc(/C=C/C(=O)O)cc1 | 25.4 µM
C[C@@]1(c2ncncc2F)NC(=O)c2cc(-c3cn[nH]c3)ccc21 | 25.8 µM

In the following, a different molecule is considered.
(Q) Please give measured GI50 of the following entry: CS(=O)c1ccc(-c2nc(-c3ccc(F)cc3)c(-c3ccncc3)[nH]2)cc1 (centres undefined)
(A) 24 µM
